Target Or Test System: JAK3 (Homo sapiens (Human))
Sequence (P52333 whole entry): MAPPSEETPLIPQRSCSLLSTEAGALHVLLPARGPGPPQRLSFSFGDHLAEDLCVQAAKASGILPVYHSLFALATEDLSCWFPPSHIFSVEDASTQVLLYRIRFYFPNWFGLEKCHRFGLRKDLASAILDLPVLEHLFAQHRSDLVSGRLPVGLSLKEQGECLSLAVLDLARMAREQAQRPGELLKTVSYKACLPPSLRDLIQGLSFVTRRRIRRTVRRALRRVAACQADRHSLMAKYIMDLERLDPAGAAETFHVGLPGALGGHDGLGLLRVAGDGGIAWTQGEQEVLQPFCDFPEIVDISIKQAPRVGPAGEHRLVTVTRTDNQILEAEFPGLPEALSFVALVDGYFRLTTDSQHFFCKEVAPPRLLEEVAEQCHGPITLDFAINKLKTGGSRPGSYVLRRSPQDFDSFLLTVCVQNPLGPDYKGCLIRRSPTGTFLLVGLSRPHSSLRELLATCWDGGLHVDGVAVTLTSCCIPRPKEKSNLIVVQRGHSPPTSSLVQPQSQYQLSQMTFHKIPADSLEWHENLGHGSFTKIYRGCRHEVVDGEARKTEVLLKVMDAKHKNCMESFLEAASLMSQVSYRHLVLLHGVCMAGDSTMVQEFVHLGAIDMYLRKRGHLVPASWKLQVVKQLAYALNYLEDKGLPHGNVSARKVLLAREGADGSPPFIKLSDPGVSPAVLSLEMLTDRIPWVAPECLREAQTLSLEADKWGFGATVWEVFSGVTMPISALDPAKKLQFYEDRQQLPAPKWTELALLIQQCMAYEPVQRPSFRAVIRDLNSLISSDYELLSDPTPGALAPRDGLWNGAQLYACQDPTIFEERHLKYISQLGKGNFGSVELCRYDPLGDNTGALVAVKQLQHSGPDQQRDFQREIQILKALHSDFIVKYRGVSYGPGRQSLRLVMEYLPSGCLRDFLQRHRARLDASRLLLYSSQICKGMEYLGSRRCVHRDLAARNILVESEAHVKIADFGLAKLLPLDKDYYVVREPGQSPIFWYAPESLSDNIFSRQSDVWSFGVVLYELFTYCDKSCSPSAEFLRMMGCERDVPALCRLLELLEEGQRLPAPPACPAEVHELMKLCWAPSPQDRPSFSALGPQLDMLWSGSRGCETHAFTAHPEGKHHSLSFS
Listed here are molecules together with their documented IC50.
Attribute Measured: IC50 (nM)

• CN1CCN(c2ccc(Nc3ncc4ccn(-c5cccc(NS(=O)(=O)C(C)(C)C)c5)c4n3)cc2)CC1 [drawing 260] = 127
• Cc1cnc(Nc2ccc(N3CCN(C)CC3)c(F)c2)nc1Nc1ccc2c(c1)N(S(=O)(=O)C(C)(C)C)CC2 [drawing 246] = 313
• CC(C)(C)S(=O)(=O)Nc1cc(-n2ccc3cnc(Nc4ccc(N5CCNCC5)c(F)c4)nc32)ccc1F [drawing 428] = 272
• CN1CCN(c2ccc(Nc3ncc4ccn(-c5ccc(F)c(NS(=O)(=O)C(C)(C)C)c5)c4n3)cc2)CC1 [drawing 295] = 105
• CN(C)C1CCN(c2ccc(Nc3ncc4ccn(-c5cccc(NS(=O)(=O)C(C)(C)C)c5)c4n3)cc2)CC1 [drawing 317] = 81
• CN1CCN(c2ccc(Nc3ncc4ccn(-c5cccc(NS(=O)(=O)C(C)(C)C)c5)c4n3)cc2C#N)CC1 = 338
• CC(C)(C)S(=O)(=O)Nc1cccc(-n2ccc3cnc(Nc4ccc(C(=O)NC5CCNCC5)c(F)c4)nc32)c1 = 242
• CNC1CCN(c2ccc(Nc3ncc4scc(-c5ccc(F)c(NS(=O)(=O)C(C)(C)C)c5)c4n3)cc2F)CC1 [drawing 458] = 82
• CNC1CCN(c2ccc(Nc3ncc4ccn(-c5ccc(F)c(NS(=O)(=O)C(C)(C)C)c5)c4n3)cc2F)CC1 [drawing 457] = 608
• Cc1cnc(Nc2ccc(OCCN3CCCC3)cc2)nc1Nc1cccc(NS(=O)(=O)C(C)(C)C)c1 = 185
• CC(C)(C)S(=O)(=O)Nc1cccc(-c2csc3cnc(Nc4ccc(N5CCNCC5)c(F)c4)nc23)c1 = 61
• CN(C)C1CCN(c2ccc(Nc3ncc4scc(-c5ccc(F)c(NS(=O)(=O)C6(C)CC6)c5)c4n3)cc2F)CC1 = 60
• CC(C)(C)S(=O)(=O)Nc1cc(-n2ccc3cnc(Nc4cc(F)c5c(c4)CC4CNCCN54)nc32)ccc1F (stereo not drawn) [drawing 465] = 285
• O=S(=O)(Nc1cccc(-n2ccc3cnc(Nc4ccc(N5CCNCC5)cc4)nc32)c1)C1CC1 [drawing 296] = 15
• CC(C)(C)S(=O)(=O)Nc1cccc(-n2ccc3cnc(Nc4ccc(N5CCNCC5)cc4)nc32)c1 [drawing 283] = 67

====

Target Or Test System: BRD4-BD2 (Homo sapiens (Human), UniProt O60885)
Protocol Notes: AlphaLisa bromodomain binding assay, BRD4-BD2
Measurement Context: Table 6; read-out: BRD4(2) IC50
// classify: if (IC50 < 300 nM) True else False

* CN(C)C1CCN(c2ccc(Nc3ncc4ccn(-c5ccc(F)c(NS(=O)(=O)C(C)(C)C)c5)c4n3)cc2F)CC1 [drawing 366] | True
* CNC1CCN(c2ccc(Nc3ncc4scc(-c5ccc(F)c(NS(=O)(=O)C(C)(C)C)c5)c4n3)cc2F)CC1 [drawing 458] | True
* CN(C)C1CCN(c2ccc(Nc3ncc4ccn(-c5cccc(NS(=O)(=O)C(C)(C)C)c5)c4n3)cc2)CC1 [drawing 317] | True
* CN1CCN(c2ccc(Nc3nc4c(c(Nc5cccc(NS(=O)(=O)C(C)(C)C)c5)n3)COC4)cc2)CC1 [drawing 206] | False
* CC(C)(C)S(=O)(=O)Nc1cccc(-n2ccc3cnc(Nc4ccc(N5CCNCC5)cc4)nc32)c1 [drawing 283] | True
* CN1CCC(NC(=O)c2ccc(Nc3ncc4ccn(-c5cccc(NS(=O)(=O)C(C)(C)C)c5)c4n3)cc2F)CC1 | True
* CN1CCN(c2ccc(Nc3ncc4ccn(-c5cccc(NS(=O)(=O)C(C)(C)C)c5)c4n3)cc2F)CC1 | False
* CC(C)(C)S(=O)(=O)Nc1cccc(-c2csc3cnc(Nc4ccc5c(c4)CCN4CCNCC54)nc23)c1 (stereo not drawn) | True
* CN1CCN(c2ccc(Nc3ncc4ccn(-c5cccc(NS(=O)(=O)C(C)(C)C)c5)c4n3)cc2)CC1 [drawing 260] | True
* COc1cc(Nc2ncc3ccn(-c4cccc(NS(=O)(=O)C(C)(C)C)c4)c3n2)ccc1N1CCNCC1 | True
* CN1CCN(c2ccc(Nc3ncc4ccn(-c5ccc(F)c(NS(=O)(=O)C(C)(C)C)c5)c4n3)cc2)CC1 [drawing 295] | True
* CNC1CCN(c2ccc(Nc3ncc4ccn(-c5ccc(F)c(NS(=O)(=O)C(C)(C)C)c5)c4n3)cc2F)CC1 [drawing 457] | True
* CN(C)C1CCN(c2ccc(Nc3ncc4scc(-c5ccc(F)c(NS(=O)(=O)C6(C)CC6)c5)c4n3)cc2F)CC1 | True
* CC(C)(C)S(=O)(=O)Nc1cccc(-n2ccc3cnc(Nc4ccc(C5CCNCC5)cc4)nc32)c1 | False

Provenance of the data: patent US11279703B2
